I'd be grateful if you could share measured MIC for these entries.
# Test system: Proteus mirabilis, 1287
# assay-name: Antibacterial activity in vitro, MIC (Table 1)
# Assay type: cell-based
# condition-description: dilution method on plate culture (heart infusion agar), 10^6/ml, 37° C., 18 hours, read-out: Minimum Inhibitory Concentration (MIC)
# unit: µg/mL | format: bare number

Ask | GET /values?readout=MIC&item= CCn1cc(C(=O)O)c(=O)c2cnc(N3CCNCC3)nc21 [PPA, reference compound]
Reply | 6.25

Ask | Field entry: CC1COc2c(N3CCN(C)CC3)c(F)cc3c(=O)c(C(=O)O)cn1c23 (stereo not shown)
Reply | 0.1

Ask | // repeat for CC1COc2c(N3CCC(O)C3)c(F)cc3c(=O)c(C(=O)O)cn1c23 (stereo not shown) and report
Reply | 0.1

Ask | Please do the same for CC1COc2c(N3CCNCC3)c(F)cc3c(=O)c(C(=O)O)cn1c23 (stereo not shown) as well.
Reply | 0.1
